Tested on: EKVX NSCLC
Experiment: NCI tumour cell line growth inhibition, 48 h
Measured log10 of TGI by item
Reminder: these figures are log10 of reported TGI, in µM before transformation.

// below: answered compounds
COc1cc[c]([Sb]([Br])([CH]=C(C)C)([CH]=C(C)C)[CH]=C(C)C)cc1 = 1.60
CN(C)CCNC(=O)c1cccc2ccc(-c3cccnc3)nc12 = 1.30
COC1/C=C\OC2(C)Oc3c(C)c(O)c4c(O)c(c(/C=N\OCCCc5ccccc5)c(O)c4c3C2=O)NC(=O)/C(C)=C\C=C/C(C)C(O)C(C)C(O)C(C)C(OC(C)=O)C1C (stereo not given) = 1.25
C=CC[N+]1(CCO)CCN=C1CCCCCCCCCCCCC (stereo not given) = 0.47
CCOC(=O)c1ccc(NC(=O)O/N=C(/Cl)C(C)C)cc1 = 1.50
C=C(C)[C@@H]1CC[C@]2(C(=O)Nc3ccccn3)CC[C@]3(C)[C@H](CC[C@@H]4[C@@]5(C)CCCNC(C)(C)[C@@H]5CC[C@]43C)[C@@H]12 = 0.40

Fill blank: measured log10 of TGI of the compound O=C(Nc1ccc(Cl)cc1F)c1cc(F)ccc1O is ____.
1.00

Quick one: CCOC(=O)/C(=C\c1ccnc2ccccc12)P(=O)(OCC)OCC
1.18

For C=C(C)C1CC2=C(O1)C(=O)c1ccccc1C2=O (stereo not given) then?
1.78
